The following binders are listed with their measured CD8 EC50 (nM); CD69/CD25 on human T cells, plate-coated antibody values.
Target: human CD3 (human, UniProt P07766 23-207; P04234 22-171; P09693 23-182)
Sequence (P07766 23-207, chain 1 of 3): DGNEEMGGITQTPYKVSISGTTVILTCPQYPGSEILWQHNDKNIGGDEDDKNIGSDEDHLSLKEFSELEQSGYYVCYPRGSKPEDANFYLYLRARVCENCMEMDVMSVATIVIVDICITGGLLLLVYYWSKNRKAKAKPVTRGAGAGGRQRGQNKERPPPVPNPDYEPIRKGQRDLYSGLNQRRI
Sequence (P04234 22-171, chain 2 of 3): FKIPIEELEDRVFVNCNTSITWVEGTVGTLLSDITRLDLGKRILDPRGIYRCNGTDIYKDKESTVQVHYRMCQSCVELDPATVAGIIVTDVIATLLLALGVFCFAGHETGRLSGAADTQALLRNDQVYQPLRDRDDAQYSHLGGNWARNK
Sequence (P09693 23-182, chain 3 of 3): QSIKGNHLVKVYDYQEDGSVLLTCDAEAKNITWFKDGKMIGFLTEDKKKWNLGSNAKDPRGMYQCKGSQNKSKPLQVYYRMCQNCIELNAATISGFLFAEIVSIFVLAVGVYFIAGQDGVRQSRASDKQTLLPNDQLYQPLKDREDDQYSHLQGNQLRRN
Assay: cell-based or functional assay
Output spec: scalar in nM, unitless text.

Reference set (4 entries):
>  <binder>
mAb 145 (antibody, V domains shown) VH: QVQLVQSGAEVKKPGASVKVSCKASGYTFTNYYIHWVRQAPGQGLDWMGIINPSGGITGYAQKFQGRVTMTRDTSTTTVYMELSSLRSDDTAVYYCARGVRGNYYYYYMDVWGKGTTVTVSS VL: EIVLTQSPDFQSVTPKEKVTITCRASQSIGSKLHWYQQKPDQSPKLLIKFASQSFSGVPSRFSGSGSGTDFNLTINSLEPEDAATFYCHQSSGLPYTFGQGTKLEIK

>  <obsValue>
14.9

$$$$
>  <binder>
mAb 128 (antibody, V domains shown) VH: EVQLVESGGGLVQPGRSLRLSCAASGFTFDDYTMHWVRQAPGKGLEWVSGISWNSGSIGYADSVKGRFTISRDNAKNSLYLQMNSLRAEDTALYYCAKDSSGYGYYYYYSMDVWGKGTTVTVSS VL: EIVMTQSPATLSVSPGERATLSCRASQSVSSNLAWYQQKPGQAPRLLIYGASTRATGIPARFSGSGSGTEFTLTISSLQSEDFAVYYCQLYYNWPHFGQGTRLAIK

>  <obsValue>
11.7

$$$$
>  <binder>
mAb 177 (antibody, V domains shown) VH: EVQLVESGGGLVQPGMSLRLSCAASGFTFDDYTMHWVRQSPGKGLEWVAGISWNSGTIGYGDSMKGRFTISRDNAKNSLDLQMNSLRVEDTALYYCAKDTSGYGHYYYYFMDVWGKGTTVTVSS VL: DIQMTQSPSSLSASIGDRVSITCRTSQIINNYLNWYQQKPGKAPKLLIYSASSLQSGVPSRFSGSGSGTDFTLTLSSLQPEDFATYFCQQSYNFPITFGQGTRLELK

>  <obsValue>
14.2

$$$$
>  <binder>
mAb 160 (antibody, V domains shown) VH: EVQLVESGGGLVQPGRSLRLSCAVSGFTFNDYTMHWVRQVPGKGLEWVSGISWNSGSIGYADSVKGRFTISRDNAKNSLYLQMNSLRAEDTALYFCAKDSSGYGHYYYYYMDVWGRGTTVTVSS VL: EIVMTQSPATLSVSPGERATLSCRASQSVRKNLAWYQQKPGQAPRLLIYGASTRATGIPARFSGSGSGTEFTLTISSLQSEDFAVYYCQLYNNWPHFGQGTRLEIK

>  <obsValue>
8.47

$$$$

Returns the measured CD8 EC50 (nM); CD69/CD25 on human T cells, plate-coated antibody for the input binder. Input: mAb 71 (antibody, V domains shown) VH: QVQLVQSGAEVRKPGASVKVSCKASGYTFTKYDVNWVRQAPGQGLEWMGWMNSNNGNIGYAQKFQGRVTMTRKTSISTAYMELSSLRSEDTAVYYCAREGHYDFWRGFYNFDYWGQGTLVTVSS VL: DIQMTQSPSSLSASVGDRVTITCRASQDIKNDLGWYQQKPGKAPKRLIYAASSLQSGVPSRFSGSGSGTEFTLTISSLQPEDFATYYCLQHNFYPITFGQGTRLEIK
19.2
